Tested on: Quadruplex DNA
assay: Stabilization of human G4 quadruplex telomeric22 DNA assessed as change in temperature at 2 uM by FRET assay
Type: nucleic-acid assay
# label = yes (1) if ΔTm >= 2 °C else no (0)

| structure_smiles_string | class_label |
| --- | --- |
| CCCOCCNCCCC(=O)Nc1ccc(-c2cn(Cc3cc(Cn4cc(-c5ccc(NC(=O)CCCNCCOCCC)cc5)nn4)cc(Cn4cc(-c5ccc(NC(=O)CCCNCCOCCC)cc5)nn4)c3)nn2)cc1 | no (0) |
| CCCCCNCCC(=O)Nc1ccc(-c2cn(Cc3cc(Cn4cc(-c5ccc(NC(=O)CCNCCCCC)cc5)nn4)cc(Cn4cc(-c5ccc(NC(=O)CCNCCCCC)cc5)nn4)c3)nn2)cc1 | yes (1) |
| CNCCCC(=O)Nc1ccc(-c2cn(Cc3cc(Cn4cc(-c5ccc(NC(=O)CCCNC)cc5)nn4)cc(Cn4cc(-c5ccc(NC(=O)CCCNC)cc5)nn4)c3)nn2)cc1 | yes (1) |
| CCNCC(=O)Nc1ccc(-c2cn(Cc3cc(Cn4cc(-c5ccc(NC(=O)CNCC)cc5)nn4)cc(Cn4cc(-c5ccc(NC(=O)CNCC)cc5)nn4)c3)nn2)cc1 | no (0) |
| CNCC(=O)Nc1ccc(-c2cn(Cc3cc(Cn4cc(-c5ccc(NC(=O)CNC)cc5)nn4)cc(Cn4cc(-c5ccc(NC(=O)CNC)cc5)nn4)c3)nn2)cc1 | no (0) |
| CCCCCNCCCC(=O)Nc1ccc(-c2cn(Cc3cc(Cn4cc(-c5ccc(NC(=O)CCCNCCCCC)cc5)nn4)cc(Cn4cc(-c5ccc(NC(=O)CCCNCCCCC)cc5)nn4)c3)nn2)cc1 | yes (1) |
| CCCOCCNCCC(=O)Nc1ccc(-c2cn(Cc3cc(Cn4cc(-c5ccc(NC(=O)CCNCCOCCC)cc5)nn4)cc(Cn4cc(-c5ccc(NC(=O)CCNCCOCCC)cc5)nn4)c3)nn2)cc1 | no (0) |
| CCCCCCNCCC(=O)Nc1ccc(-c2cn(Cc3cc(Cn4cc(-c5ccc(NC(=O)CCNCCCCCC)cc5)nn4)cc(Cn4cc(-c5ccc(NC(=O)CCNCCCCCC)cc5)nn4)c3)nn2)cc1 | yes (1) |
| CCCCCCNCCCC(=O)Nc1ccc(-c2cn(Cc3cc(Cn4cc(-c5ccc(NC(=O)CCCNCCCCCC)cc5)nn4)cc(Cn4cc(-c5ccc(NC(=O)CCCNCCCCCC)cc5)nn4)c3)nn2)cc1 | no (0) |
| CCCOCCNCC(=O)Nc1ccc(-c2cn(Cc3cc(Cn4cc(-c5ccc(NC(=O)CNCCOCCC)cc5)nn4)cc(Cn4cc(-c5ccc(NC(=O)CNCCOCCC)cc5)nn4)c3)nn2)cc1 | no (0) |
| CCCCCNCC(=O)Nc1ccc(-c2cn(Cc3cc(Cn4cc(-c5ccc(NC(=O)CNCCCCC)cc5)nn4)cc(Cn4cc(-c5ccc(NC(=O)CNCCCCC)cc5)nn4)c3)nn2)cc1 | no (0) |

###

System: dsDNA
assay: Stabilization of human duplex DNA assessed as change in temperature at 1 uM by FRET assay
Assay type: nucleic-acid assay
value_type: ΔTm (°C)

| structure_smiles_string | experimental_value |
| --- | --- |
| CCCCCNCC(=O)Nc1ccc(-c2cn(Cc3cc(Cn4cc(-c5ccc(NC(=O)CNCCCCC)cc5)nn4)cc(Cn4cc(-c5ccc(NC(=O)CNCCCCC)cc5)nn4)c3)nn2)cc1 | 0 |
| CCNCCCC(=O)Nc1ccc(-c2cn(Cc3cc(Cn4cc(-c5ccc(NC(=O)CCCNCC)cc5)nn4)cc(Cn4cc(-c5ccc(NC(=O)CCCNCC)cc5)nn4)c3)nn2)cc1 | 0 |
| CCCOCCNCCC(=O)Nc1ccc(-c2cn(Cc3cc(Cn4cc(-c5ccc(NC(=O)CCNCCOCCC)cc5)nn4)cc(Cn4cc(-c5ccc(NC(=O)CCNCCOCCC)cc5)nn4)c3)nn2)cc1 | 0 |
| CCNCCC(=O)Nc1ccc(-c2cn(Cc3cc(Cn4cc(-c5ccc(NC(=O)CCNCC)cc5)nn4)cc(Cn4cc(-c5ccc(NC(=O)CCNCC)cc5)nn4)c3)nn2)cc1 | 0 |
| CCCCCCNCCC(=O)Nc1ccc(-c2cn(Cc3cc(Cn4cc(-c5ccc(NC(=O)CCNCCCCCC)cc5)nn4)cc(Cn4cc(-c5ccc(NC(=O)CCNCCCCCC)cc5)nn4)c3)nn2)cc1 | 0 |
| CCCCCCNCCCC(=O)Nc1ccc(-c2cn(Cc3cc(Cn4cc(-c5ccc(NC(=O)CCCNCCCCCC)cc5)nn4)cc(Cn4cc(-c5ccc(NC(=O)CCCNCCCCCC)cc5)nn4)c3)nn2)cc1 | 0 |

###

Tested on: A549
assay: Antiproliferative activity against human A549 cells assessed as inhibition of cell growth incubated for 24 hrs by SRB assay
Type: functional, cell-based
condition_info: A549, 24 h

| structure_smiles_string | study_target | IC50 (nM) |
| --- | --- | --- |
| ClCCCN1CCN(c2nc(N3CCN(CCCl)CC3)nc(N3CCN(CCCl)CC3)n2)CC1 | A549 | 620 |

###

System: Quadruplex DNA
assay: Stabilization of human G4 quadruplex telomeric22 DNA assessed as change in temperature at 1 uM by FRET assay
Type: nucleic-acid assay

| structure_smiles_string | unit_text | ΔTm |
| --- | --- | --- |
| CCCCCNCC(=O)Nc1ccc(-c2cn(Cc3cc(Cn4cc(-c5ccc(NC(=O)CNCCCCC)cc5)nn4)cc(Cn4cc(-c5ccc(NC(=O)CNCCCCC)cc5)nn4)c3)nn2)cc1 | °C | 0 |
| CCCCCCNCC(=O)Nc1ccc(-c2cn(Cc3cc(Cn4cc(-c5ccc(NC(=O)CNCCCCCC)cc5)nn4)cc(Cn4cc(-c5ccc(NC(=O)CNCCCCCC)cc5)nn4)c3)nn2)cc1 | °C | 2 |
| CCCCCCNCCC(=O)Nc1ccc(-c2cn(Cc3cc(Cn4cc(-c5ccc(NC(=O)CCNCCCCCC)cc5)nn4)cc(Cn4cc(-c5ccc(NC(=O)CCNCCCCCC)cc5)nn4)c3)nn2)cc1 | °C | 4 |
| CCCCCNCCCC(=O)Nc1ccc(-c2cn(Cc3cc(Cn4cc(-c5ccc(NC(=O)CCCNCCCCC)cc5)nn4)cc(Cn4cc(-c5ccc(NC(=O)CCCNCCCCC)cc5)nn4)c3)nn2)cc1 | °C | 2 |
| CNCC(=O)Nc1ccc(-c2cn(Cc3cc(Cn4cc(-c5ccc(NC(=O)CNC)cc5)nn4)cc(Cn4cc(-c5ccc(NC(=O)CNC)cc5)nn4)c3)nn2)cc1 | °C | 1 |
| CCNCC(=O)Nc1ccc(-c2cn(Cc3cc(Cn4cc(-c5ccc(NC(=O)CNCC)cc5)nn4)cc(Cn4cc(-c5ccc(NC(=O)CNCC)cc5)nn4)c3)nn2)cc1 | °C | 0 |
| c1ccc2c(c1)c1cc(-c3cc(-c4ccc5c(c4)c4ccccc4n5CCN4CCCC4)cc(-c4ccc5c(c4)c4ccccc4n5CCN4CCCC4)c3)ccc1n2CCN1CCCC1 | °C | 1.9 |
| CCN(CC)CCn1c2ccccc2c2cc(-c3cc(-c4ccc5c(c4)c4ccccc4n5CCN(CC)CC)cc(-c4ccc5c(c4)c4ccccc4n5CCN(CC)CC)c3)ccc21 | °C | 2.8 |
| CCCOCCNCC(=O)Nc1ccc(-c2cn(Cc3cc(Cn4cc(-c5ccc(NC(=O)CNCCOCCC)cc5)nn4)cc(Cn4cc(-c5ccc(NC(=O)CNCCOCCC)cc5)nn4)c3)nn2)cc1 | °C | 0 |
| CNCCCC(=O)Nc1ccc(-c2cn(Cc3cc(Cn4cc(-c5ccc(NC(=O)CCCNC)cc5)nn4)cc(Cn4cc(-c5ccc(NC(=O)CCCNC)cc5)nn4)c3)nn2)cc1 | °C | 2 |
| CCCOCCNCCC(=O)Nc1ccc(-c2cn(Cc3cc(Cn4cc(-c5ccc(NC(=O)CCNCCOCCC)cc5)nn4)cc(Cn4cc(-c5ccc(NC(=O)CCNCCOCCC)cc5)nn4)c3)nn2)cc1 | °C | 0 |
| CCN(CC)CCCn1c2ccccc2c2cc(-c3cc(-c4ccc5c(c4)c4ccccc4n5CCCN(CC)CC)cc(-c4ccc5c(c4)c4ccccc4n5CCCN(CC)CC)c3)ccc21 | °C | 5.1 |
| CCCCCNCCC(=O)Nc1ccc(-c2cn(Cc3cc(Cn4cc(-c5ccc(NC(=O)CCNCCCCC)cc5)nn4)cc(Cn4cc(-c5ccc(NC(=O)CCNCCCCC)cc5)nn4)c3)nn2)cc1 | °C | 1 |

###

Test system: Micrococcus luteus
assay: Antimicrobial activity against Micrococcus luteus ATCC 9341 assessed as zone of inhibition by […]
Format: functional
value_type: inhibition zone (IZ) (mm)

| compound | unit_text | experimental_value |
| --- | --- | --- |
| O=C(/C=C/c1cccc([N+](=O)[O-])c1)c1ccc(Oc2nc(Oc3ccc(C(=O)/C=C/c4cccc([N+](=O)[O-])c4)cc3)nc(Oc3ccc(C(=O)/C=C/c4cccc([N+](=O)[O-])c4)cc3)n2)cc1 | mm | 5 |
| Cc1ccc(/C=C/C(=O)c2ccc(Oc3nc(Oc4ccc(C(=O)/C=C/c5ccc(C)cc5)cc4)nc(Oc4ccc(C(=O)/C=C/c5ccc(C)cc5)cc4)n3)cc2)cc1 | mm | 11 |
| NC(=S)N1N=C(c2ccc(Oc3nc(Oc4ccc(C5=NN(C(N)=S)C(c6cccc([N+](=O)[O-])c6)C5)cc4)nc(Oc4ccc(C5=NN(C(N)=S)C(c6cccc([N+](=O)[O-])c6)C5)cc4)n3)cc2)CC1c1cccc([N+](=O)[O-])c1 (stereo not given) | mm | 16 |
| NC(=S)N1N=C(c2ccc(Oc3nc(Oc4ccc(C5=NN(C(N)=S)C(c6ccccc6)C5)cc4)nc(Oc4ccc(C5=NN(C(N)=S)C(c6ccccc6)C5)cc4)n3)cc2)CC1c1ccccc1 (stereo not given) | mm | 15 |
| O=C(/C=C/c1ccccc1)c1ccc(Oc2nc(Oc3ccc(C(=O)/C=C/c4ccccc4)cc3)nc(Oc3ccc(C(=O)/C=C/c4ccccc4)cc3)n2)cc1 | mm | 7 |
